# pIC50 per entry
Biological target: Human KIF18A (1-376aa) (Homo sapiens, UniProt Q8NI77)
Sequence (Q8NI77 1-376): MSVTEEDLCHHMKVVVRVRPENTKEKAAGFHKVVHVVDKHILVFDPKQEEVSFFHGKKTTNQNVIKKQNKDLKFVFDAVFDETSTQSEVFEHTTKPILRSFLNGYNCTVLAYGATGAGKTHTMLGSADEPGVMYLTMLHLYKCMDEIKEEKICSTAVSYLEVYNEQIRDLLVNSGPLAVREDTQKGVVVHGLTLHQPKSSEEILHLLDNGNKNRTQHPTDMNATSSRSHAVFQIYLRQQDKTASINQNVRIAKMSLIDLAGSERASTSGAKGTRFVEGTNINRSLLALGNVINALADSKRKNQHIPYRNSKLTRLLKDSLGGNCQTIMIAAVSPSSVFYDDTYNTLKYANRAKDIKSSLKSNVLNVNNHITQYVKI
pIC50: −log10 of the molar value.

>>> print(df.to_string())
                                   compound  assay_result
0  O=C(Nc1cc(N2CCC(F)(F)CC2)c2nccn2c1)c1ccc(NS(=O)(=O)CCO)cc1N1CCC2(CC1)CC2 [Compound 80]        > 6.70
1  Cc1cc(NC(=O)c2ccc(NS(=O)(=O)CCO)cc2N2CCC3(CC2)CC3)c2nc3n(c2n1)CCCCC3 [Compound 79]        > 6.70
2  CC1OCCn2c1nc1c(NC(=O)c3ccc(NS(=O)(=O)CCO)cc3N3CCC4(CC3)CC4)cccc12 (stereo not shown) [Compound 56]        > 6.70
3  O=C(Nc1cccc2c1nc1n2CCOCC1)c1ccc(NS(=O)(=O)CCO)cc1N1CCC2(CC1)CC2 [Compound 53]        > 6.70
4  CC1CCCCc2nc3c(NC(=O)c4ccc(NS(=O)(=O)CCO)cc4N4CCC5(CC4)CC5)cccc3n21 (stereo not shown) [Compound 68]        > 6.70

Consider now this further compound.
Q: Please look at this compound and report its pIC50: Cc1nc2c(NC(=O)c3ccc(NS(=O)(=O)CCO)cc3N3CCC4(CC3)CC4)cccn2n1 [Compound 3]
Ans: > 6.70
